# assaySystem: Genome polyprotein (dengue virus type 2, UniProt P29990)
# Sequence (P29990 2492-3391 limits assumed): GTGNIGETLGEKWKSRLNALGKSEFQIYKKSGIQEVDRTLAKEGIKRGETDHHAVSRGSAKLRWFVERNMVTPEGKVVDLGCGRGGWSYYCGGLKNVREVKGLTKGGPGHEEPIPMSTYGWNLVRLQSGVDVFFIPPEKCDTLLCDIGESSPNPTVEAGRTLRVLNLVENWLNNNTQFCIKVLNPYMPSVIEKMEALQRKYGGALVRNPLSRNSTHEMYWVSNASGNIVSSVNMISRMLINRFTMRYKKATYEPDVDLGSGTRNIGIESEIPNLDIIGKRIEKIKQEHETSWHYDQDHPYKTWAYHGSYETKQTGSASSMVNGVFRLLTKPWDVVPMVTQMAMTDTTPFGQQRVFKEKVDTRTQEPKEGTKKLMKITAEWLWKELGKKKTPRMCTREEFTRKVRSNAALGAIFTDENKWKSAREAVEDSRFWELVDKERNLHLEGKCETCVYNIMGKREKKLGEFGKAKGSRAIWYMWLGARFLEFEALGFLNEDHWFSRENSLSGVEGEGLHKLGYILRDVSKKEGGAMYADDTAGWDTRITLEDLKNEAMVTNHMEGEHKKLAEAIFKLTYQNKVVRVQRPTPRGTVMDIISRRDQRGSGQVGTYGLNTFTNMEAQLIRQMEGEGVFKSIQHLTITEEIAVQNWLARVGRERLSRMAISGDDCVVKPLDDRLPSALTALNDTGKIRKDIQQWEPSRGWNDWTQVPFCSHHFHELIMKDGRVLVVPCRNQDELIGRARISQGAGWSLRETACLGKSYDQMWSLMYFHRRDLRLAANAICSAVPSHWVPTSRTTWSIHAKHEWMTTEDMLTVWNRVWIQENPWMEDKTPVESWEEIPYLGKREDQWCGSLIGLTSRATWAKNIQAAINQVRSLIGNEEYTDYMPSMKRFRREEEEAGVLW
# assayExplanation: flavivirus cap methylation enzyme inhibition – biochemical, confirmation dose response, primary screen (AID 588689)
# Assay type: functional
Active and inactive are the calls of the source. How the calls were made is not given here.
assayMetric: IC50

Examples with their reported IC50 follow.
>>> val("CC1=NN(c2ccc(C)cc2C)C(=O)C1C(c1ccccc1)C1C(=O)N(c2ccc(C)cc2C)N=C1C (configuration not stated)")
"48.8 µM (active)"
>>> val("CCCSc1nc(O)c(C(c2ccc(OC)c(O)c2)c2c(O)nc(SCCC)n(C)c2=O)c(=O)n1C")
"42.1 µM (active)"
>>> val("Cc1[nH]c2ccccc2c1C1=CC(=O)C=CC1=O")
"17.7 µM (active)"
>>> val("C#CCOc1ccc(/C=C2/C(=O)ON=C2C)cc1OCC")
"> 100 µM (active)"

## Input Determine from records and report IC50 for "Cc1ccc(OCCOc2cccc(C=C3C(=O)NC(=O)NC3=O)c2)c(C)c1"
## Output 35.5 µM (active)

## Input Determine from records and report IC50 for "O=C(CN1C(=O)/C(=C/c2ccco2)SC1=S)Nc1ccc(O)c(C(=O)O)c1"
## Output > 100 µM (active)

## Input Determine from records and report IC50 for "CCSc1nnc(NC(=O)c2nc(S(=O)(=O)Cc3ccc(F)cc3)ncc2Cl)s1"
## Output 41.5 µM (active)
